Tested on: LOX IMVI melanoma
Experiment: NCI tumour cell line growth inhibition, 48 h; in the data active = GI50 below about 0.43 µM; inactive = the rest
Can you answer with just one of these options? active, inactive

| molecule | assigned_category |
| --- | --- |
| Cc1nc2cc(Nc3nc(Nc4ccc(F)cc4)nc(N4CCN(C)CC4)n3)ccc2n1Cc1ccccc1 | inactive |
| C(=C\c1nccc2c1[nH]c1ccccc12)/c1ccccc1 | inactive |
| C=CCC(N[C@H](CO)c1ccccc1)c1cn(S(=O)(=O)c2ccc(C)cc2)c2ccccc12 (some centres undefined) | inactive |
| COC(=O)C1(C2CC/C(C)=C/CC/C(C)=C/CC[C@@]3(C)O[C@@H]3C2)CC1 (some centres undefined) | inactive |
| O=C(CNc1ncco1)Nc1ccc(S(=O)(=O)c2ccc(NC(=O)CNc3ncco3)cc2)cc1 | active |
| C[C@@H](Oc1ccc2[nH]nc(/C=C/c3cnn(CCO)c3)c2c1)c1c(Cl)cncc1Cl | active |
| C[C@]12C3CC[C@@]4(CO)C[C@]3(CCC1[C@](C)(C(=O)O)CC[C@@H]2O)CC4=O (some centres undefined) | inactive |
| O=C(Nc1ccccc1O)c1ccc(CNC(=O)c2sccc2Nc2ccnc(C(F)(F)F)c2)cc1 | inactive |

Kindly review the next molecule as well.
Assay result, entry Cc1ccc(C2C3=C(N=c4s/c(=C/c5ccc(Br)cc5)c(=O)n42)c2ccc4ccccc4c2OCC3)cc1 (centres undefined) — outcome? inactive

---

Tested on: SK-OV-3 ovarian
Test: NCI tumour cell line growth inhibition, 48 h
parameter_measured: TGI

| compound | measured |
| --- | --- |
| O=C(Nc1cccc(O)c1)c1cccc(NC2=C(Cl)C(=O)N(Cc3ccccc3)C2=O)c1 | 34.6 µM |
| Cc1nc2c(n1CCN(C)C)C(=O)c1ccccc1C2=O | > 100 µM |
| Cn1nc2ccc3nccc(N(CCO)CCO)c3c2n1 | > 100 µM |

Look up TGI for the entries below, preserving their order.
1. O=c1c2ccccc2nc(-c2ccccc2)n1O
2. CC1(C)CCCOc2cccc(c2)OCCCC(C)(C)C1=O
3. Cc1[nH]nc2c1C(=O)C=C(N(CCO)c1ccccc1)C2=O
4. CCc1c(O)c2c(c(O)c1C(C)=O)C(=O)c1c(cc(O)c(C(=O)O)c1C(=O)O)C2=O

1. > 100 µM
2. > 100 µM
3. > 100 µM
4. > 100 µM

Look up TGI for the entries below, preserving their order.
1. CC(C)(CC#N)c1cc(CC(C)(C)c2cc(CC(C)(C)c3cc(C(C)(C)C4(C)OCCO4)no3)no2)no1
2. Cc1cc(N(CCC#N)CCC#N)ccc1N=Nc1cccc(Cl)c1
3. COC1CC(CC2CCC(C)C(C(C)C(=O)O)O2)OC2(OC(C)(C3CCC(C)(C4OC(C5OC(O)(CO)C(C)CC5C)CC4C)O3)CC2C)C1C (stereo not given)

1: > 100 µM; 2: > 100 µM; 3: 46.3 µM

---

Please go through the items and note down their TGI.
Test system: SK-MEL-28 melanoma
Assay: NCI tumour cell line growth inhibition, 48 h

Example cases with answers are listed next.
| molecule | TGI |
| --- | --- |
| CCSC1=N/C(=C/c2ccccc2O)C(=O)N1 | > 100 µM |
| CC1SC(c2c(Cl)cccc2Cl)N(NC(=O)C(O)c2ccccc2)C1=O (stereo not drawn) | > 100 µM |

Just so you know, measured TGI for CCCCNC(=O)CCN(C(=O)O)S(=O)(=O)c1ccc(NC(=O)c2ccccc2)cc1 came out at > 100 µM

---

Please go through the items and note down their TGI.
Tested on: MALME-3M melanoma
Assay: NCI tumour cell line growth inhibition, 48 h
Give bare numbers, in µM.

Example cases with answers are listed next.
| mol_smiles | TGI, µM |
| --- | --- |
| CC(=O)/C=C/C1=C(c2cccs2)c2ccccc2CC1 | 54.9 |
| CC(C)(C)OC(=O)CN1CCc2c(sc3ncnc(N/N=C/c4cccc5ccccc45)c23)C1 | 8.69 |

Then there is this compound:
Just so you know, measured TGI for Cc1ccc2c(c1)O/C(=C\c1ccc([N+](=O)[O-])o1)C2=O came out at 4.6

---

Please go through the items and note down their TGI.
Test system: SF-295 CNS
Test: NCI tumour cell line growth inhibition, 48 h
Answers are plain numbers, in µM.

| compound | parameter_measured | unit_descriptor | measured |
| --- | --- | --- | --- |
| COc1ccc(N2C(=O)[C@@H]3[C@H](C2=O)c2[nH]c4ccccc4c2C2CCC(C(C)(C)C)C[C@@H]23)cc1 (stereo partly drawn) | TGI | µM | 29.4 |

Just so you know, measured TGI for CC(C)(C)OC(=O)CN1CCc2c(sc3ncnc(N/N=C/c4cccc5ccccc45)c23)C1 came out at 10.2

---

Test system: LOX IMVI melanoma
Test: NCI tumour cell line growth inhibition, 48 h
Please go through the items and note down their TGI.

Look up TGI for the entries below, preserving their order.
1. CNC(=O)OC1C(O[C@H]2C[C@H]3[C@@H]4CC=C5C[C@@H](O)CC[C@]5(C)[C@H]4CC[C@]3(C)[C@H]2[C@H](C)C(=O)CCC(C)C)OCC(O)C1OC1OCC(O)C(O)C1OC(=O)c1ccc(OC)cc1 (stereo not given in full)
2. CCO/C(O)=C(/C(=N)N1CCCC1)C(=O)Nc1ccc(F)cc1
3. O=C(O)C(O)C(O)C(O)C(=O)CO (stereo not given)
4. COc1ccc(-c2nnc(N3CCN(C(=O)CN4CCN(c5ccc(Cl)cc5)CC4)CC3)nc2-c2ccc(OC)cc2)cc1
5. NC(=S)N1N=C(c2ccccc2O)CC1c1ccccc1 (stereo not given)
6. CC(=O)N/N=C1/CC[C@@]2(C)C(=CC[C@H]3C4CCC(C(C)CCCC(C)C)[C@@]4(C)CCC32)C1(C)C (stereo not given in full)
7. CCOc1ccc2ccc3cccnc3c2n1

1: 0.0688 µM; 2: > 100 µM; 3: > 100 µM; 4: > 100 µM; 5: 46.2 µM; 6: > 100 µM; 7: > 100 µM

Look up TGI for the entries below, preserving their order.
1. COc1cc(NCc2ccccc2O)c2ncccc2c1
2. O=[N+]([O-])[O-].O=[N+]([O-])[O-].[Au].[Au].c1ccc([P-]c2ccccc2)cc1.c1ccc([P-]c2ccccc2)cc1
3. CO[C@@]12C[C@H]3[C@@H]([C@@H](O)[C@@H](OC(=O)/C=C/c4ccccc4)[C@@]4(O)C(C)(C)CCC[C@]34C)[C@@H](C)C1=CC(=O)O2
4. N#C/C(N)=C(\C#N)N=Cc1csc2ccccc12

1. 67.3 µM
2. > 100 µM
3. 15.6 µM
4. 66.3 µM

---

System: HCT-116 colon
Test: NCI tumour cell line growth inhibition, 48 h; in the data active = GI50 below about 0.43 µM; inactive = the rest
Can you answer with just one of these options? active, inactive

See these solved cases before continuing.
| compound | assigned_category |
| --- | --- |
| CS(=O)(=O)CCn1c(=O)c(Oc2ccc(F)cc2F)cc2cnc(NC3CCOCC3)nc21 | inactive |
| c1cc[c]([Sn]([S]c2cccc3cccnc23)([S]c2cccc3cccnc23)[c]2ccccc2)cc1 | active |
| OCC#Cc1ccccc1C#Cc1ccc(C#Cc2ccccc2C#CCO)s1 | inactive |

Assay result, entry CCCN1C(=O)CSC1=Nc1ccc2cc3ccc(N=C4SCC(=O)N4CCC)cc3nc2c1 — outcome? inactive

Assay result, entry COc1cc(C2=NN(c3ccc(S(N)(=O)=O)cc3)C(c3ccc(Cl)cc3)C2)cc(OC)c1OC (stereo unspecified) — outcome? inactive

Assay result, entry C1=C(c2ccccc2)C(c2ccc(OCCN3CCCCC3)cc2)Oc2ccccc21 (stereo unspecified) — outcome? inactive

Assay result, entry COc1ccc(CC(NC(=O)[C@H](C)NC(=O)CN2CCOCC2)C(=O)N[C@@H](Cc2ccccc2)C(=O)[C@@]2(C)CO2)cc1 (stereo partly specified) — outcome? active

Assay result, entry COc1cc(NCc2ccccc2O)c2ncccc2c1 — outcome? inactive

Assay result, entry CC(=O)[C-](C(C)=O)c1ccccc1.CC(=O)[C-](C(C)=O)c1ccccc1.CC[O-].CC[O-].[Ti+4] — outcome? inactive

Assay result, entry O=C(Nc1cccc(O)c1)c1cccc(NC2=C(Cl)C(=O)N(Cc3ccccc3)C2=O)c1 — outcome? inactive

Assay result, entry COC(=O)C1(C2CC/C(C)=C/CC/C(C)=C/CC[C@@]3(C)O[C@@H]3C2)CC1 (stereo partly specified) — outcome? inactive

---

System: CAKI-1 renal
Assay: NCI tumour cell line growth inhibition, 48 h
Where a SMILES comes first, the peptide text is derived from it.
Please go through the items and note down their TGI.

| compound | measured |
| --- | --- |
| CCC(C)C(NC(=O)C1CCCN1C(=O)C(CC(C)C)NC(=O)C(CC(C)C)NC(=O)C(N)CC(C)C)C(=O)NC(C(=O)NCC(=O)NC(CC(N)=O)C(=O)NC(CC(C)C)C(=O)NC(CC(C)C)C(=O)NC(CC(C)C)C(N)=O)C(C)C (configuration not stated) (H-LLLPIVGNLLL-NH2; configuration not given here) | > 50 µM |

Look up TGI for the entries below, preserving their order.
1. COc1ccc(/C=C/C(=O)c2cc3c(N)c(C(=O)Nc4ccccc4C)sc3nc2C)cc1
2. CC(=O)OC1CCC2(C)C(=CCC3C4CCC5(OC6CC(C)CN(C(C)=O)C6C5C)C(C)=C4C(=O)C32)C1 (configuration not stated)
3. O=c1c2ccccc2[nH]c(=S)n1-c1ccc(N=Nc2cccc3cc(O)ccc23)cc1
4. CCCCCCCCCCCC(O)=C1C(=O)CC(O)CC1=O (configuration not stated)
5. CC(C)(Oc1ccc2c(=O)cc(-c3ccccc3)oc2c1)C(=O)Nc1c(Cl)cccc1Cl
6. COc1cc2cc(Oc3ccc(NC(=O)Nc4ccc(Cl)c(C(F)(F)F)c4)cc3)c(C)nc2cc1OC

1: > 50 µM; 2: 75.1 µM; 3: > 100 µM; 4: > 100 µM; 5: > 100 µM; 6: 2.54 µM
